- Organism: Mus musculus
- protocol details: Inhibition of MAO in mouse cortex at 10 uM by tube luminometry
Activity calls are given as the source filed them. The rule behind the calls is not given here.
measure name: inhibition

Sample answers from the record:
>>> assay_result("C#CCN(CC#C)C12CC3CC(CC(C1)c1ccccc13)O2")
"inactive"
>>> assay_result("NC(=O)CNC12CC3CC(CC(C1)c1ccccc13)O2")
"inactive"
>>> assay_result("C#CCNC12CC3CC(CC(C1)c1ccccc13)O2")
"inactive"
>>> assay_result("C#CCNC12CC3CC(CC)(CC(C1)c1ccccc13)O2")
"inactive"
>>> assay_result("C#CCN(CC#C)C12CC3CC(CC)(CC(C1)c1ccccc13)O2")
"inactive"

Q) Could you tell me which inhibition is on file for C#CCN(C)[C@H](C)Cc1ccccc1 ?
A) 85.5%
